// provenance: patent US10131652B2

System: barnyardgrass (Echinochloa crus-galli)
Test: Test D pre-/postemergence plant response
Format: in vivo
Details: Postemergence, 125 g ai/ha; scale 0 to 100, 0 no effect, 100 complete control
// returns Not fulfilled unless Plant response rating, Barnyardgrass is strictly below 10, in which case Fulfilled

[
  {
    "Smiles notation": "Fc1ccc(Oc2ncc(Cl)cn2)c(-c2cc(C(F)F)on2)c1F",
    "Assigned category": "Not fulfilled"
  },
  {
    "Smiles notation": "FC(F)Oc1cccc(Oc2ncc(Cl)cn2)c1-c1cc(C(F)F)on1",
    "Assigned category": "Not fulfilled"
  },
  {
    "Smiles notation": "Cc1cc(-c2c(F)cccc2Oc2ncc(Br)cn2)on1",
    "Assigned category": "Fulfilled"
  },
  {
    "Smiles notation": "FC(F)c1cc(-c2c(Cl)cccc2Oc2ncc(Cl)cn2)on1",
    "Assigned category": "Not fulfilled"
  }
]
